Target: T1, TWEAK (Peprotech EC, Ltd, U.K.) (UniProt O43508 94-249, limits assumed)
T1 sequence (looked up): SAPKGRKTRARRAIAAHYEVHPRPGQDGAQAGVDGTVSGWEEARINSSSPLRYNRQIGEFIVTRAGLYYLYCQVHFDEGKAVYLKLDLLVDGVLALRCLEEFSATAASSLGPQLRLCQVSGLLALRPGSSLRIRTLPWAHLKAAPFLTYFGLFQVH
Test: cell-based or functional assay
Where no end group is shown, it is not given here.
Reported Metric: IL6 normalized level of expression (Zscore vs NARS2), RT-PCR, cells with peptide at 450 µM (Zscore)

| Binder | Quantitative Readout |
| --- | --- |
| TTDGSTGDDLQA-NH2 [Peptide 2: TTDGSTGDDLQA (SEQ ID NO: 1)] | -0.535 |
| DNGGGNTDIYSE-NH2 [Peptide 4: DNGGGNTDIYSE (SEQ ID NO: 4)] | -0.045 |
| SYTDVQDS-NH2 [Peptide 3: SYTDVQDS (SEQ ID NO: 3)] | -0.972 |
| SWYDHMAGDSSY-NH2 [Peptide 1: SWYDHMAGDSSY (SEQ ID NO: 2)] | 0.198 |
